# METHOD DESCRIPTION: Partition coefficient (logD)
# Format: physicochemical
# MEASUREMENT CONTEXT: octanol/water
MEASURED PROPERTY: logD

- MOLECULE: "CCC(=O)OC1CCN(C)CC1"
  MEASURED PROPERTY: "logD"
  VALUE REPORTED: -0.22
- MOLECULE: "CCCC(=O)OC1CCN(C)CC1"
  MEASURED PROPERTY: "logD"
  VALUE REPORTED: 0.21
- MOLECULE: "CCCC(=O)OCC1CCN(CCF)CC1"
  MEASURED PROPERTY: "logD"
  VALUE REPORTED: 0.62
- MOLECULE: "CC(=O)OC1CCN(C)CC1"
  MEASURED PROPERTY: "logD"
  VALUE REPORTED: -0.3

All figures here come from ChEMBL document CHEMBL1147519.
